Just for reference, patent US20080119515A1 is where these values come from.

# TESTED_SYSTEM: ZAP-70 (Homo sapiens, UniProt P43403)
# Sequence (P43403 1-619): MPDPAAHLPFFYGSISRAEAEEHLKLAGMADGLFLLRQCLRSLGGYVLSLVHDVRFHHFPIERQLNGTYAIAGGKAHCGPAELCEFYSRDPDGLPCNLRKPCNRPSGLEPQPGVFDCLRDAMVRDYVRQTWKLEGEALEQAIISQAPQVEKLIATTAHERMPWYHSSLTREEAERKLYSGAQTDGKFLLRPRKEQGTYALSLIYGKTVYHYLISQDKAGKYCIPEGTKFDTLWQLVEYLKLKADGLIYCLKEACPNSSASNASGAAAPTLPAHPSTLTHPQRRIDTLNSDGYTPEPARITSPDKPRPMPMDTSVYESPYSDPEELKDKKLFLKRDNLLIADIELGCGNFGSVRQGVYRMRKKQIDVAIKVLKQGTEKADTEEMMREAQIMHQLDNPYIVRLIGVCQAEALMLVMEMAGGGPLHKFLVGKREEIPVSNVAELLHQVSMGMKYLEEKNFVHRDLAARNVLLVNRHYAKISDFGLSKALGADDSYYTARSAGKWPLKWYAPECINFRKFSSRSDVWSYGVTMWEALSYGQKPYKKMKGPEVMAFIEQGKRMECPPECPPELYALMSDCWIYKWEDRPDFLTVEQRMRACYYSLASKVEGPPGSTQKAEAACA
# ASSAY_REMARKS: DELFIA assay (ZAP-70 kinase, phosphorylation of biotinylated poly(glu,tyr))
# Format: biochemical
# RUN_CONDITIONS: ZAP-70 DELFIA, class symbols; read-out: Activity (IC50 in vitro)
pIC50: −log10 of the molar value.
MEASURED_QUANTITY: pIC50

INSERT INTO results (compound, result) VALUES
  ('N#Cc1cccc(-c2ccc3c(C(=O)N4CCC[C@H]4CN4CCCC4)cc(NCc4ccc(C(F)(F)F)cc4)nc3c2)c1 [Compound 119]', '< 5.00'),
  ('N#Cc1ccc(-c2ccc3nc(NCc4ccc(C(F)(F)F)cc4)cc(C(=O)N4CCC[C@H]4CN4CCCC4)c3c2)cc1 [Compound 107]', '> 6.00'),
  ('Nc1ccc(CCc2cc(C(=O)N3CCC[C@H]3CN3CCCC3)c3cc(-c4ccc5c(c4)OCO5)ccc3n2)cc1 [Compound 394]', '< 5.00'),
  ('N#Cc1ccc(-c2ccc3nc(NNCc4ccccc4)cc(C(=O)N4CCC[C@H]4CN4CCCC4)c3c2)cc1 [Compound 249]', '< 5.00');

Lab note: O=C(c1cc(N[C@@H]2CCc3ccccc32)nc2ccc(-c3ccc4c(c3)OCO4)cc12)N1CCC[C@H]1CN1CCCC1 [Compound 42] gave pIC50 of 5.00 to 6.00

Lab note: Cc1ccc(CNc2cc(C(=O)N3CCC[C@H]3CN3CCCC3)c3cc(-c4ccc(C#N)cc4)ccc3n2)cc1 [Compound 178] gave pIC50 of < 5.00

Lab note: N#Cc1ccc(-c2ccc3nc(NCc4ccc(-c5cccs5)cc4)cc(C(=O)N4CCC[C@H]4CN4CCCC4)c3c2)cc1 [Compound 234] gave pIC50 of < 5.00

Lab note: CCN(Cc1ccc(C)cc1)c1cc(C(=O)N2CCC[C@H]2CN2CCCC2)c2cc(-c3ccc(C#N)cc3)ccc2n1 [Compound 244] gave pIC50 of < 5.00

Lab note: N#Cc1ccc(-c2ccc3nc(NCc4ccc(C(F)(F)F)cc4F)cc(C(=O)N4CCC[C@H]4CN4CCCC4)c3c2)cc1 [Compound 240] gave pIC50 of < 5.00

Lab note: Nc1ccc(-c2ccc3nc(NCc4ccc(C(F)(F)F)cc4)cc(C(=O)N4CCC[C@H]4CN4CCCC4)c3c2)cc1 [Compound 424] gave pIC50 of < 5.00

Lab note: CN(C)[C@@H]1CCN(c2cc(C(=O)N3CCC[C@H]3CN3CCCC3)c3cc(-c4ccc5c(c4)OCO5)ccc3n2)C1 [Compound 75] gave pIC50 of 5.00 to 6.00

Lab note: CC[C@H](Nc1cc(C(=O)N2CCC[C@H]2CN2CCCC2)c2cc(-c3ccc(C#N)cc3)ccc2n1)c1ccccc1 [Compound 171] gave pIC50 of < 5.00

Lab note: O=C(c1cc(NCC2CCCCC2)nc2ccc(-c3ccc4c(c3)OCO4)cc12)N1CCC[C@H]1CN1CCCC1 [Compound 27] gave pIC50 of > 6.00

Lab note: N#Cc1ccc(-c2ccc3nc(NCc4cccc5ccccc45)cc(C(=O)N4CCC[C@H]4CN4CCCC4)c3c2)cc1 [Compound 216] gave pIC50 of < 5.00

Lab note: O=C(c1cc(NCc2ccc(C(F)(F)F)cc2)nc2c(-c3ccc4c(c3)OCO4)cc(Cl)cc12)N1CCC[C@H]1CN1CCCC1 [Compound 383] gave pIC50 of < 5.00
